assay: Solubility in solvents, antisolvents and liquid fill solvents; assay type: physicochemical; conditions: antisolvents (organic liquids), organic solvent or mixture; pentane, hexane, cyclohexane, heptane, ethyl acetate, iso-propyl acetate, MTBE, methyl iso-butyl ketone; read-out: solubility in antisolvents
PARAMETER MEASURED: solubility

Using the record for CC(C)NC[C@@H](C(=O)N1CCN(c2ncnc3c2[C@H](C)C[C@H]3O)CC1)c1ccc(Cl)cc1.Cl , report its solubility. < 20 mg/mL
